Assignment: determine reported MIC for the given molecules.
Tested on: Pseudomonas aeruginosa PAO1
Construct: PAO1 (attTn7::mini-Tn7T-Gm-lacIq-pLAC-MCS)
Test: microbe, parasite or virus in culture
Parameters: 2-fold serial broth dilution MIC (at least 90% growth inhibition)
Settings: PAO1, read-out: MICs (mg/L) in strains: / PAO1
Expressed in mg/L, but write only the number.

**Q:** Can you share its MIC? I mean this molecule: CO/N=C(\C(=O)N[C@@H]1C(=O)N2C(C(=O)O)=C(CSc3nc(=O)c(O)nn3C)CS[C@H]12)c1csc(N)n1
**A:** 15.6

**Q:** Next: CCN1CCN(C(=O)N[C@@H](C(=O)N[C@@H]2C(=O)N3C(C(=O)O)=C(CSc4nnnn4C)CS[C@H]23)c2ccc(O)cc2)C(=O)C1=O
**A:** 3.9

----------
Tested on: Pseudomonas aeruginosa PAO1-Pore
Construct: PAO1-Pore (hyperporinated, attTn7::mini-Tn7T-Gmr-lacIq-pLAC-fhuADCΔ4L)
Assay: microbe, parasite or virus in culture
Set-up: 2-fold serial broth dilution MIC (at least 90% growth inhibition)
Conditions: PAO1, read-out: MICs (mg/L) in strains: / PAO1-Pore
Description: Antibacterial activities were tested using a 2-fold serial dilution broth assay as described previously ([13]). The antibacterial activities are expressed as MIC (defined as at least 90% of growth inhibition) and IC50. To follow the fate of compounds in cells and to identify descriptors associated with different permeation barriers, we first separated the contributions of the OM barrier and active efflux in measured activities of compounds. […]
Response field label takes 1 (yes) when MIC is strictly below 20 mg/L and 0 (no) in all other cases.

**Q:** Could you please tell me whether MIC recorded for CO/N=C(\C(=O)N[C@@H]1C(=O)N2C(C(=O)O)=C(CSc3nc(=O)c(O)nn3C)CS[C@H]12)c1csc(N)n1 [OU-640, ceftriaxone] is less than 20 mg/L?
**A:** 1 (yes)

**Q:** Next: Nc1nc(/C(=C/CC(=O)O)C(=O)N[C@@H]2C(=O)N3C(C(=O)O)=CCS[C@H]23)cs1 [OU-668, ceftibuten]
**A:** 0 (no)

**Q:** Next: CO[C@@]1(NC(=O)C(C(=O)O)c2ccc(O)cc2)C(=O)N2C(C(=O)O)=C(CSc3nnnn3C)CO[C@@H]21 (stereo partly shown) [OU-672, moxalactam]
**A:** 1 (yes)

**Q:** Next: O=C(O)C1=C(CSc2nnnn2CS(=O)(=O)O)CS[C@@H]2[C@H](NC(=O)[C@H](O)c3ccccc3)C(=O)N12 [OU-666, cefonicid]
**A:** 1 (yes)

**Q:** Next: CO[C@@]1(NC(=O)C2SC(=C(C(N)=O)C(=O)O)S2)C(=O)N2C(C(=O)O)=C(CSc3nnnn3C)CS[C@@H]21 (stereo partly shown) [OU-654, cefotetan]
**A:** 0 (no)

**Q:** Next: Cc1cc(O)c(C(=O)N[C@@H](C(=O)N[C@@H]2C(=O)N3C(C(=O)O)=C(CSc4nnnn4C)CS[C@H]23)c2ccc(O)cc2)cn1 [OU-031452, cefpiramide]
**A:** 0 (no)

**Q:** Next: CCN1CCN(C(=O)N[C@@H](C(=O)N[C@@H]2C(=O)N3C(C(=O)O)=C(CSc4nnnn4C)CS[C@H]23)c2ccc(O)cc2)C(=O)C1=O [OU-634, cefoperazone]
**A:** 1 (yes)
